// data source = patent US8975398B2

target: NAMPT (Homo sapiens, UniProt P43490)
Sequence (P43490 whole entry): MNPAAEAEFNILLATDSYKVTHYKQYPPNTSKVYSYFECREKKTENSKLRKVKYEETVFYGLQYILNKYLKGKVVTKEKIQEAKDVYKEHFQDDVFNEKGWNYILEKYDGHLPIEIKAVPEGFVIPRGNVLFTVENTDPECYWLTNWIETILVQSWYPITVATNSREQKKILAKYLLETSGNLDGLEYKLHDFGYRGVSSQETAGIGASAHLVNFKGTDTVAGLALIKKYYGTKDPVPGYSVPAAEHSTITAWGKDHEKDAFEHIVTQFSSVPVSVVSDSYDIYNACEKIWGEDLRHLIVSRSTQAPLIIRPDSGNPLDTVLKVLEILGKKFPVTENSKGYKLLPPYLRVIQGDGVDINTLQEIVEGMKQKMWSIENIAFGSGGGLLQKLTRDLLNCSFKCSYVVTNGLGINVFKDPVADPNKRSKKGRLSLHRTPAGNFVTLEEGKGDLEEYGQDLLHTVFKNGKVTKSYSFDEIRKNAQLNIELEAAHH
property_label: IC50

Solved cases below.
O=C(Nc1ccc(C2CCN(C(=O)Cc3ccccc3Cl)CC2)cc1)C1CN(c2cccnn2)C1 [Example 369] :: 0.479 nM
Cc1ncccc1N1CC(C(=O)Nc2ccc(C3CCN(C(=O)c4ccc(F)cc4)CC3)cc2)C1 [Example 155] :: 44 nM
O=C(Nc1ccc(C2CCN(C(=O)CC3CCCC3)CC2)cc1)[C@H]1CCN(c2cccnc2)C1 [Example 204] :: 2.76 nM
O=C(Nc1ccc(OC2CCN(C(=O)c3nccs3)CC2)cc1)C1CN(c2cccnn2)C1 [Example 213] :: 0.678 nM

Problem: Notebook entry, NAMPT (Homo sapiens, UniProt P43490) assay: IC50 of O=C(Nc1ccc(OC2CCN(C(=O)Cc3cc(F)cc(F)c3)CC2)cc1)C1CN(c2ccnnc2)C1 [Example 291] = ?
Solution: 18.2 nM

----------
Test system: PC3 cells
Test: NAMPT Cell Proliferation Assay (Cell Titer Glo; also performed in the presence of 0.3 mM nicotinamide mononucleotide)
Assay type: cell-based
Settings: Homo sapiens, PC-3, 120 h, 5 days incubation, cell viability by Cell Titer Glo
Description: NAMPT Cell Proliferation Assay PC3 cells were seeded in 96-well black plates (Corning #3904) at 500 cells/well in 90 μl of RPMI media containing 10% heat-inactivated FBS and incubated overnight at 37° C. and 5% CO2 to allow cells to attach to wells. […] Cells were incubated for 5 days at 37° C. and 5% CO2, then cell viability was measured using Cell Titer Glo reagent (Promega #G7571). […]
Entries and their IC50
// units = nM; emit number, no label

O=C(Nc1ccc(CC2CCN(C(=O)CC3CCCC3)CC2)cc1)C1CN(c2cccnn2)C1 :: 2.4
CN1CCCC(CNC(=O)c2ccc(NC(=O)C3CN(c4cccnn4)C3)cc2)C1 (centres unmarked) :: 1070
O=C(Nc1ccc(CC2CCN(C(=O)C3CCC3)CC2)cc1)C1CN(c2cccnn2)C1 :: 2.86
O=C(Nc1ccc(CC2CCN(C(=O)c3ccno3)CC2)cc1)C1CN(c2cccnn2)C1 :: 3.34
CC(C)C(=O)N1CCC(Cc2ccc(NC(=O)C3CN(c4cccnn4)C3)cc2)CC1 :: 2.07

Problem: Given COCCNC(=O)c1ccc(NC(=O)C2CN(c3cccnn3)C2)cc1 , state its recorded IC50.
Solution: 508

Problem: Given CC(C)(C)C(=O)N1CCC(c2ccc(C(=O)N[C@H]3CCN(c4cccnn4)C3)s2)CC1 , state its recorded IC50.
Solution: 213

Problem: Given CCCNC(=O)c1ccc(NC(=O)C2CN(c3cccnn3)C2)cc1 , state its recorded IC50.
Solution: 299

----------
system: PC3 cells; experiment: NAMPT Cell Proliferation Assay (Cell Titer Glo; also performed in the presence of 0.3 mM nicotinamide mononucleotide); type: cell-based; conditions: Homo sapiens, PC-3, 120 h, 5 days incubation, cell viability by Cell Titer Glo
pIC50: −log10 of the molar value.
Values of pIC50 strictly less than 8 map to Condition met, and values of at least 8 map to Condition not met.

Problem: Threshold test, pIC50 < 8: O=C(Nc1ccc(-c2cc(C(F)(F)F)nn2-c2ccccc2)cc1)C1CN(c2cccnn2)C1
Solution: Condition met

Problem: Threshold test, pIC50 < 8: CC1CC1NC(=O)c1ccc(NC(=O)C2CN(c3cccnn3)C2)cc1 (stereo not drawn)
Solution: Condition met

Problem: Threshold test, pIC50 < 8: CCC(CC)C(=O)N1CCC(Cc2ccc(NC(=O)C3CN(c4cccnn4)C3)cc2)CC1
Solution: Condition not met

Problem: Threshold test, pIC50 < 8: CC(C)(C)Cn1cc(-c2ccc(NC(=O)C3CN(c4ccc(Cl)nn4)C3)cc2)cn1
Solution: Condition met

Problem: Threshold test, pIC50 < 8: C[C@@H](NC(=O)c1ccc(NC(=O)C2CN(c3cccnn3)C2)cc1)C1CC1
Solution: Condition met

Problem: Threshold test, pIC50 < 8: CC1(NC(=O)c2ccc(NC(=O)C3CN(c4cccnn4)C3)cc2)CCC1
Solution: Condition met

Problem: Threshold test, pIC50 < 8: O=C(Nc1ccc(CC2CCN(C(=O)C3CCCC3)CC2)cc1)C1CN(c2cccnn2)C1
Solution: Condition not met

Problem: Threshold test, pIC50 < 8: O=C(Nc1ccc(CC2CCN(C(=O)c3cscn3)CC2)cc1)C1CN(c2cccnn2)C1
Solution: Condition not met

Problem: Threshold test, pIC50 < 8: CC1(C)CC(NC(=O)c2ccc(NC(=O)C3CN(c4cccnn4)C3)cc2)CCO1 (stereo not drawn)
Solution: Condition met

Problem: Threshold test, pIC50 < 8: O=C(Nc1ccc(C2CCN(C(=O)CCC(F)(F)F)CC2)nc1)C1CN(c2cccnn2)C1
Solution: Condition met

Problem: Threshold test, pIC50 < 8: CCC(=O)N1CCC(Cc2ccc(NC(=O)C3CN(c4cccnn4)C3)cc2)CC1
Solution: Condition not met

Problem: Threshold test, pIC50 < 8: O=C(Nc1ccc(F)cc1)c1ccc(NC(=O)C2CN(c3cccnn3)C2)cc1
Solution: Condition met

----------
target: NAMPT (Homo sapiens, UniProt P43490)
pIC50: −log10 of the molar value.
Threshold check on pIC50: at or above 9 gives True, strictly below gives False.

Worked examples, 3 compounds total:
CCC(=O)N1CCC(c2ccc(NC(=O)C3CN(c4cccnc4)C3)cc2)CC1 [Example 121] :: True
Cc1ncccc1N1CC(C(=O)Nc2ccc(C3CCN(C(=O)CC(C)C)CC3)cc2)C1 [Example 197] :: False
CC(C)(O)C(=O)N1CCC(c2ccc(NC(=O)C3CN(c4cnccc4C#N)C3)cc2)CC1 [Example 97] :: False

Problem: Can CCC(C)CC(=O)N1CCC(c2ccc(NC(=O)C3CN(c4cccnc4)C3)cc2)CC1 (centres unmarked) [Example 99] be said to have pIC50 at or above 9?
Solution: True

Problem: Can CC(C)CCC(=O)N1CCC(c2ccc(NC(=O)C3CN(c4cccnc4)C3)cc2)CC1 [Example 116] be said to have pIC50 at or above 9?
Solution: True

Problem: Can O=C(Nc1ccc(C2CCN(C(=O)CC3CCCC3)CC2)cc1)C1CN(c2ccnnc2)C1 [Example 144] be said to have pIC50 at or above 9?
Solution: False

Problem: Can O=C(Nc1ccc(C2CCN(C(=O)c3ccc(Cl)c(Cl)c3)CC2)cc1)C1CN(c2cccnn2)C1 [Example 364] be said to have pIC50 at or above 9?
Solution: True

Problem: Can Cc1ncccc1N1CC(C(=O)Nc2ccc(C3CCN(C(=O)C4(C)CCCCC4)CC3)cc2)C1 [Example 177] be said to have pIC50 at or above 9?
Solution: False

Problem: Can Cc1ncccc1N1CC(C(=O)Nc2ccc(C3CCN(C(=O)[C@@H]4CCC(=O)N4)CC3)cc2)C1 [Example 174] be said to have pIC50 at or above 9?
Solution: False

Problem: Can O=C(Nc1ccc(C2CCN(C(=O)Cc3cc(F)cc(F)c3)CC2)cc1)C1CN(c2cccnn2)C1 [Example 384] be said to have pIC50 at or above 9?
Solution: True

Problem: Can Cc1ncccc1N1CC(C(=O)Nc2ccc(C3CCN(C(=O)c4ccco4)CC3)cc2)C1 [Example 189] be said to have pIC50 at or above 9?
Solution: False

Problem: Can Cc1ncccc1N1CC(C(=O)Nc2ccc(C3CCN(C(=O)c4cccs4)CC3)cc2)C1 [Example 187] be said to have pIC50 at or above 9?
Solution: False

Problem: Can Cc1ncccc1N1CC(C(=O)Nc2ccc(C3CCN(C(=O)CCN4CCOCC4)CC3)cc2)C1 [Example 184] be said to have pIC50 at or above 9?
Solution: False

Problem: Can O=C(Nc1ccc(OC2CCN(C(=O)CC3CCOCC3)CC2)cc1)[C@H]1CCN(c2cccnc2)C1 [Example 11] be said to have pIC50 at or above 9?
Solution: False

Problem: Can CC(C)(C)CC(=O)N1CCC(c2ccc(NC(=O)C3CN(c4cccnc4)C3)cc2)CC1 [Example 132] be said to have pIC50 at or above 9?
Solution: True

----------
molecular target: NAMPT (human, recombinant, C-terminally His-tagged) (Homo sapiens, UniProt P43490); assay: Time-Resolved Fluorescence Resonance Energy Transfer (TR-FRET) Binding Assay of NAMPT; conditions: 6.8 nM NAMPT, 200 nM probe, equilibrated 3 hours, absence of substrates
Sequence (P43490 whole entry): as above
Note to self: class = bucket of IC50, per I = under 40 nM, II = from 40 nM up to 200 nM, III = 200 nM and over

Worked examples, 3 molecules total:
Cc1ccc(C(=O)N2CCC(c3ccc(NC(=O)C4CN(c5cccnn5)C4)cc3)CC2)s1 [Example 377] :: I
O=C(Nc1ccc(C2CCN(C(=O)c3ccc(O)cc3)CC2)cc1)C1CN(c2cccnn2)C1 [Example 344] :: I
C=CCC(=O)N1CCC(c2ccc(NC(=O)C3CN(c4cccnn4)C3)cc2)CC1 [Example 330] :: I

Problem: Exam item: assign Cc1ncccc1N1CC(C(=O)Nc2ccc(C3CCN(C(=O)CC4C[C@@H]5CC[C@H]4C5)CC3)cc2)C1 (stereo partly shown) [Example 161] to the correct category.
Solution: II

Problem: Exam item: assign O=C(Nc1ccc(OC2CCN(C(=O)c3cc(F)cc(F)c3)CC2)cc1)C1CN(c2ccnnc2)C1 [Example 299] to the correct category.
Solution: II

Problem: Exam item: assign Cc1ncccc1N1CC(C(=O)Nc2ccc(C3CCN(C(=O)CCC(C)C)CC3)cc2)C1 [Example 176] to the correct category.
Solution: II

Problem: Exam item: assign O=C(Nc1ccc(C2CCN(C(=O)Cc3ccccc3F)CC2)cc1)C1CN(c2cccnn2)C1 [Example 366] to the correct category.
Solution: I
